pIC50: −log10 of the molar value.
Observed pIC50 for HIF-2α HIS TAG-PASB Domain (Homo sapiens, UniProt Q99814), reported per entry below.

See these solved cases before continuing.
CS(=O)(=O)c1cnc(Oc2cc(F)cc(C#N)c2)c2c1[C@H](O)C(F)(F)[C@@H]2F : > 7.30
N#Cc1cc(F)cc(Oc2ncc(C(F)(F)F)c3c2C[C@@H](F)[C@H]3O)c1 : < 6.00
CS(=O)(=O)c1cnc(Oc2cc(F)cc(C#N)c2)c2c1[C@H](O)[C@H](F)C2 : < 6.00
CS(=O)(=O)c1ncc(OC2CC(F)(F)C2)c2c1[C@H](O)[C@H](F)C2 : 6.00 to 6.60
N#Cc1cc(F)cc(Oc2cnc(C(F)(F)F)c3c2[C@@H](F)[C@@H](F)[C@H]3O)c1 : > 7.30
O[C@H]1c2c(C(F)F)ncc(OC3CC(F)(F)C3)c2C[C@H]1F : < 6.00

Req: # pIC50 lookup, item N#Cc1cc(F)cc(Oc2nnc(C(F)(F)F)c3c2CCC3O)c1 (stereo not shown)
Resp: < 6.00

Req: # pIC50 lookup, item O[C@H]1c2c(C(F)F)ncc(OC3CC(F)(F)C3)c2C[C@@H]1F
Resp: < 6.00

Req: # pIC50 lookup, item O[C@H]1c2c(C(F)(F)F)ncc(O[C@H]3C[C@H](F)C3)c2C[C@H]1F
Resp: > 7.30

Req: # pIC50 lookup, item O[C@H]1c2c(C(F)(F)F)ncc(OCC(F)F)c2C[C@H]1F
Resp: > 7.30

Req: # pIC50 lookup, item O[C@H]1c2c(C(F)(F)F)ncc(Oc3cncc(F)c3)c2[C@@H](F)[C@H]1F
Resp: > 7.30

Req: # pIC50 lookup, item CS(=O)(=O)c1ncc(OC2CC(F)(F)C2)c2c1[C@H](O)[C@@H](F)C2
Resp: < 6.00

Req: # pIC50 lookup, item O/N=C1/c2c(C(F)(F)F)ncc(OCC(F)F)c2CC1F (stereo not shown)
Resp: < 6.00

Req: # pIC50 lookup, item N#Cc1cc(F)cc(Oc2ncc(Br)c3c2[C@@H](F)C(F)(F)[C@H]3O)c1
Resp: 6.60 to 7.30

Req: # pIC50 lookup, item O[C@H]1c2c(C(F)(F)F)ncc(-c3cc(F)cc(F)c3)c2C[C@H]1F
Resp: 6.00 to 6.60

Req: # pIC50 lookup, item N#Cc1cc(F)cc(Oc2ncc(C(F)(F)F)c3c2CCC3O)c1 (stereo not shown)
Resp: < 6.00
